B1: Gamma-crystallin S, residues 96 to 176; numbered along this chain, P22914 (parent)
chain: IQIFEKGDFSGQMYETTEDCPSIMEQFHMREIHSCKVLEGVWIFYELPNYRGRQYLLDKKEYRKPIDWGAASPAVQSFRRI

- Variants of: B1
- EXPERIMENTAL_PROTOCOL: abundance fitness (aPCA) (normalised: wild type 0, dead -1); higher = more abundant; growth selection in yeast, the domain comes from the species named
- CONDITION_LABEL: Homo sapiens
The following variants are listed with their measured abundance fitness values.
In your answer, state the number alone without any accompanying words.

>>> reported_measurement("F27L")
0.015
>>> reported_measurement("S72T")
-0.1
>>> reported_measurement("H33P")
0.057
>>> reported_measurement("H28N")
0.009
>>> reported_measurement("S72F")
-0.066

Here's the next entry for you.
Ask | Give abundance fitness for Q26V
Reply | 0.009
